Target: T1, human IL-33 (R&D Systems, #3625-IL-010/CF) (human, UniProt O95760 112-270)
T1 construct: Commercial recombinant protein; also called hIL-33; interleukin-33
T1 sequence (looked up): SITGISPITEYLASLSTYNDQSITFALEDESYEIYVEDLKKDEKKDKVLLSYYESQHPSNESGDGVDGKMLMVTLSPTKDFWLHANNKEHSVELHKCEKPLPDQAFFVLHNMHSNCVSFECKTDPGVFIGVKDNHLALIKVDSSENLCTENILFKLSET
Assay: SPR 37C, pH6.0 chase, mAb captured
quantity: t½ (min)
Write the value in min as a bare number.

binder | t½ / min
H4H9664P (antibody, human IgG4, V domains shown, Human IgG4 Fc (H4H)) VH: QVQLVESGGGVVQPGRSLRLSCAASGFTFSSYGLHWVRQSPGKGLEWVALISYDGSNKYYADSVKGRFTISRDNSKNTLYLQMNSLRPEDTAGYFCAKSLYTTSWYGGFDYWGQGTLVTVSS VL: DIQMTQSPSSVSASVGDRVTITCRASQGIRSWLAWYQQKPGKAPNLLIYAASSLQSGVPSRFSGSGSGTDFTLTISSLQPEDFATYYCQQANSFPPTFGPGTKVDIK | 4
H1M9568N (antibody, mouse IgG1, V domains shown, Human variable domains, mouse IgG1 Fc (H1M)) VH: QVLLVQSGAEVKKPGATVKVSCKASGSTFTGYYMHWVRQAPGQGLEWMGWINPNNGGTNYAQKFQGRVTMTRDTSISTAYMELSRLRSDDTAVYYCARELRYNWKSWGQGTLVTVSS VL: EIVLTQSPGTLSLSPGERVTLSCRASQSVGRPYLAWYQQIPGQAPRLLIYGASSRATDIPDRFSGNGSGTDFTLTISRLEPEDFAVYYCQQYDNSPYTFGQGTRLEIK | 10

Turning now to a further record.
Task: Look up and report measured t½ for this entry: H4H9659P (antibody, human IgG4, V domains shown, Human IgG4 Fc (H4H)) VH: QVQLVQSGAEVKKPGASVKVSCKASGYTFNSYGISWVRQAPGQGLEWMGWISSHNGNSHYVQKFQGRVSMTTDTSTSTAYMELRSLRSDDTAVYYCARHSYTTSWYGGFDYWGQGTLVTVSS VL: DIQMTQSPSSVSASVGDRVTITCRASQGFSSWLAWYQQKPGKAPQLLIYAASSLQSGVPSRFSGSGSGSDFTLTISSLQPEDFATYYCQQANSFPLTFGGGTKVEIK
Output: 4

Data origin: patent US20160362487A1
